- Type: physicochemical
- run parameters: pH 1.8; Ambient; 24 h
Reported % assay/degs, difference from T = 0 by item:
Entry rule: numbers only, all in %.

Query block: Data request, read-out % assay/degs, difference from T = 0, for `CCC(CC)COC(=O)[C@H](C)N[P@](=O)(OC[C@H]1O[C@@](C#N)(c2ccc3c(N)ncnn23)[C@H](O)[C@@H]1O)Oc1ccccc1`
Result block: −1.3

Query block: Repeat for the following compound: `N#C[C@@]1(c2ccc3c(N)ncnn23)O[C@H](CO)[C@@H](O)[C@H]1O`
Result block: 0.05

Query block: Repeat for the following compound: `CCC(CC)COC(=O)[C@H](C)N[P@](=O)(OC[C@H]1O[C@@](C(N)=O)(c2ccc3c(N)ncnn23)[C@H](O)[C@@H]1O)Oc1ccccc1`
Result block: 0.00

Query block: Repeat for the following compound: `N#C[C@@]1(c2ccc3c(N)ncnn23)O[C@H](COP(=O)(O)Oc2ccccc2)[C@@H](O)[C@H]1O`
Result block: 1.05
